TESTED_SYSTEM: Recombinant human HSP90α (Homo sapiens)
ASSAY_INFO: HSP90 radioligand filter binding test ([3H]17AAG competition)
CONDITION_SET: [3H]17AAG 0.08 μM, HSP90 1.5 μg/assay, 22° C., 30 min; read-out: HSP90 inhibition IC50
METRIC_NAME: IC50 (µM)

| MOLECULAR_STRING | TESTED_SYSTEM | METRIC_NAME | READOUT_NUMBER |
| --- | --- | --- | --- |
| O[C@H]1C[C@H](COc2ccccc2)N(c2nc(Cl)nc3[nH]cnc23)C1 | Recombinant human HSP90α (Homo sapiens) | IC50 | 30 |
| Fc1nc(N2CCC[C@@H]2COc2ccccc2F)c2nc[nH]c2n1 | Recombinant human HSP90α (Homo sapiens) | IC50 | 0.9 |
| Cc1nc(N2CCC[C@@H]2COc2ccccc2Cl)c2nc[nH]c2n1 | Recombinant human HSP90α (Homo sapiens) | IC50 | 6.3 |

[a] Cc1nc(N2CCC[C@@H]2COc2ccccc2F)c2nc[nH]c2n1
[b] Brc1ccccc1OC[C@H]1CCCN1c1ncnc2[nH]cnc12
Between the entries labelled a and b , which has a larger IC50 value on record? Identify your pick by its label.
b

From: patent US7977343B2
